Would you kindly list inhibition for each of these compounds?
# subject of test: Perilipin-5 (Homo sapiens) + 1-acylglycerol-3-phosphate O-acyltransferase ABHD5 (Homo sapiens) (UniProt Q00G26+Q8WTS1)
# Sequence (Q00G26 whole entry, looked up): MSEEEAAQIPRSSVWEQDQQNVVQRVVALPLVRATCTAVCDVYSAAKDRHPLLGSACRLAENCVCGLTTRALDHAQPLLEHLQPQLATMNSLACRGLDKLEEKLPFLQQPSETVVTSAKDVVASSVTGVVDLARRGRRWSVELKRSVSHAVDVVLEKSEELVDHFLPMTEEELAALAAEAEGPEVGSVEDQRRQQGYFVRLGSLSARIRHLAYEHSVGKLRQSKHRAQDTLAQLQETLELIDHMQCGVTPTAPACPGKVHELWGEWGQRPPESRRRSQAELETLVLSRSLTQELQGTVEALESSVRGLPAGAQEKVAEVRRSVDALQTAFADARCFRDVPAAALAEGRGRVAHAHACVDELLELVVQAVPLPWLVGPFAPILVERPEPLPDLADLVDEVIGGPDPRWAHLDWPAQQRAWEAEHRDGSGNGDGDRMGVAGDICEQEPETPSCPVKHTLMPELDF
# Sequence (Q8WTS1 whole entry, looked up): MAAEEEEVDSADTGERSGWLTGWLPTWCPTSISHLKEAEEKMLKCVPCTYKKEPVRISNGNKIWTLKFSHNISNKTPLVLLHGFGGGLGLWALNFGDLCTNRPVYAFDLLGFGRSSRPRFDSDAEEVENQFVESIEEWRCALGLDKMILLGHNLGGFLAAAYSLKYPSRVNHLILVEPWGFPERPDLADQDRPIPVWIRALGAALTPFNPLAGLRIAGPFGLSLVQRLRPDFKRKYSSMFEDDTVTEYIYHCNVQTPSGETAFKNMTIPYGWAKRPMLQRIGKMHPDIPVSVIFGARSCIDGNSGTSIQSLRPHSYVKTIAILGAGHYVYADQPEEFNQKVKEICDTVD
# assay procedure: ABHD5-PLIN5 interaction inhibitors, primary screen, cell lysate, split luciferase complementation, luminescence (AID 602281);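 note: 0% = DMSO only wells and the 100% control is not disclosed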
# applied conditions: Split G. princeps luciferase complementation, 4 h, at 4 µM, active compounds read high
Screen size: about 360,000 compounds; about 2,900 (0.81%) were called active. For the sample, actives were picked, then their nearest neighbours and some compounds at random.
Answer with a number only, understood to be in %.

Look at this compound and give its reported inhibition. Oc1c(CN2CCOCC2)ccc(CN2CCOCC2)c1O
-0.13

Any idea what inhibition was measured for NC[C@H](Cc1ccccc1)NCCc1cc(C(F)(F)F)cc(C(F)(F)F)c1 ?
5.8

Given Cn1sc(=O)c2cc(S(=O)(=O)NC3CC3)ccc21 , state its recorded inhibition.
43.1

Field request: inhibition | item: O=C(NCCOCc1ccc(Cl)cc1)c1ncn[nH]1
24.2

// inhibition lookup, key: O=C(CCC(=O)OCC(F)(F)C(F)F)NCc1ccccc1
-6.31

Please look up its inhibition: CC1CCC(NS(=O)(=O)c2ccc3c(c2)CC(=O)N3)CC1 (centres undefined)
2.49

If you can, please state the reported inhibition value of O=c1[nH][nH]c2c1[C@H](c1ccc(Cl)cc1)O[C@H](CCc1ccccc1)C2 .
29.6

Fill blank: measured inhibition of the compound CS(=O)(=O)N1CCCCC1c1cc(C(=O)NCc2ccccc2)no1 (centres undefined) is ____.
-1.92

# inhibition lookup, item CCN(c1ccc2c(c1)OCO2)S(=O)(=O)c1cc(Br)cc2c1N(C(=O)C1CC1)CC2
-5.83

Reported inhibition for Cc1cccc(NC(=O)c2ccc3nsnc3c2)c1C : what is it?
122

Please give the measured inhibition for this compound: O=C1/C(=C\c2ccc(O)cc2)CCC1CNc1ccc(Cl)cc1 (centres undefined)
23.7

Which inhibition is listed for CC1=NNC(=O)C1CC(=O)N/N=C/c1ccncc1 (centres undefined) ?
0.97

Bench note: what inhibition did Cc1csc2ncc(C(=O)N(Cc3ccccc3)c3ccccn3)c(=O)n12 show?
3.35

# inhibition lookup, item C=C(C)C(=O)O[C@H]1C/C(C)=C\C(=O)/C=C(\C)[C@H](O)[C@@H]2OC(=O)C(=C)[C@@H]21
27

Need inhibition of CCCCOC(=O)CNc1nnc(SCC(=O)OCC)[nH]c1=O , thanks.
55.4

inhibition lookup needed for O=C(CSC1=NS(=O)(=O)c2cc(F)ccc2N1)Nc1ccccc1F , thanks.
-1.35

So what does the record say about inhibition for O=C(NCCS(=O)(=O)NCc1ccc(Cl)cc1)c1ccccc1 ?
-6.46

Given the compound O=S(=O)(/C=C/c1ccccc1)N1CCNCC1 , what is its reported inhibition?
-10.8

What value of measured inhibition is listed for Nc1nc(NC(=O)/C=C/c2ccccc2)nn1-c1ccccc1 ?
3.41

Query (compound): Cc1cc(C(=O)NCCc2ccc(Cl)cc2)n(-c2ccccc2)n1 ; field requested: inhibition
1.98

Look up inhibition: COc1ccc(C2OC(CCc3ccccc3)Cc3[nH]c(=S)[nH]c(=O)c32)cc1 (centres undefined)
-6.49

Which measured inhibition value corresponds to Cc1ccc(S(=O)(=O)Cn2nnnc2CN2CCN(Cc3ccc4c(c3)OCO4)CC2)cc1 ?
-0.76

Would you kindly share the measured inhibition for O=C(/C=C/c1ccccc1)c1ccoc1 ?
23

Dear colleague, I am looking for the recorded inhibition of the following compound: CCOC(=O)CSc1nc(C)c(Oc2ccc(Cl)cc2Cl)c(=O)[nH]1
-1.81

====

# subject of test: Perilipin-5 (Homo sapiens) + 1-acylglycerol-3-phosphate O-acyltransferase ABHD5 (Homo sapiens) (UniProt Q00G26+Q8WTS1)
# assay procedure: ABHD5-PLIN5 interaction inhibitors, primary screen, cell lysate, split luciferase complementation, luminescence (AID 602281);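 note: 0% = DMSO only wells and the 100% control is not disclosed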
# applied conditions: Split G. princeps luciferase complementation, 4 h, at 4 µM
In all, about 360,000 compounds went through this assay and about 2,900 (0.81%) were called active.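 Rule for the calls: active = inhibition above the mean inhibition across every tested compound plus 3 SD (cut at about 22% in these data); inactive = the rest.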 The sample holds actives, similar compounds and a random draw of the others, so the mix is not that of the screen.
# output must be one of active, inactive

Outcome? COc1ccccc1C(=O)NCC(=O)OCC(=O)NNC(=O)c1ccc(Br)cc1
inactive

Recorded call for O=C(Nc1nc(-c2ccco2)c(-c2ccco2)s1)c1ccco1 ?
active

What was the test verdict on COc1ccc(/C(O)=C2/C(=O)C(=O)N(c3nc(C)c(C)s3)C2c2ccco2)cc1 (configuration not stated) ?
inactive

What was the test verdict on COc1ccccc1C1/C(=C(/O)c2ccc(C)cc2)C(=O)C(=O)N1Cc1ccco1 (configuration not stated) ?
active

Kindly provide the recorded test outcome for the following compound: O=C(CN(c1cc(C(F)(F)F)ccc1Cl)S(=O)(=O)c1ccccc1)NCc1cccnc1
inactive

So what was the verdict on CCc1nnc(NC(=O)c2ccco2)s1 in this test?
inactive

What is the recorded call for this compound in the test? C=CCC[C@H](CCCCC)OC(=O)/C=C/[C@H](O)[C@@H](O)C[C@@H](O)CC=C
inactive

====

# subject of test: Perilipin-5 (Homo sapiens) + 1-acylglycerol-3-phosphate O-acyltransferase ABHD5 (Homo sapiens) (UniProt Q00G26+Q8WTS1)
# assay procedure: ABHD5-PLIN5 interaction inhibitors, primary screen, cell lysate, split luciferase complementation, luminescence (AID 602281);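 note: 0% = DMSO only wells and the 100% control is not disclosed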
# applied conditions: Split G. princeps luciferase complementation, 4 h, at 4 µM, active compounds read high
About 2,900 (0.81%) of roughly 360,000 compounds were called active. The entries come from a sample that favours actives as a whole.
Record form. Attribute: inhibition. Fill in for each entry.
# value in %; strip the unit string

Find the recorded inhibition belonging to O=C(COC(=O)c1cnccn1)Nc1cccc2ccccc12 and report it.
-5.15

Fill blank: measured inhibition of the molecule Cc1cccc(C(=O)Nc2ccc(Oc3cnccn3)cc2)c1 is ____.
3.4

inhibition for COc1ccc(C2OC(=O)CC2C(=O)NC(C)C)cc1 (stereo unspecified) ?
-1.02

# input molecule: O=C(OCc1cc(Cl)ccc1OC(F)F)c1cccnc1 ; wanted: its inhibition
4.48

Any idea what inhibition was measured for N#Cc1ccc(-c2nc3c(Cl)cc(C(F)(F)F)cn3c2Cc2ccccc2C(F)(F)F)cc1 ?
0.66

Which inhibition is reported for this molecule? CN(CC(=O)Nc1ccc(F)cc1)CC(=O)Nc1ccc(Cl)c(S(=O)(=O)N2CCOCC2)c1
5.71

====

# subject of test: Perilipin-5 (Homo sapiens) + 1-acylglycerol-3-phosphate O-acyltransferase ABHD5 (Homo sapiens) (UniProt Q00G26+Q8WTS1)
# assay procedure: ABHD5-PLIN5 interaction inhibitors, primary screen, cell lysate, split luciferase complementation, luminescence (AID 602281);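 note: 0% = DMSO only wells and the 100% control is not disclosed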
# applied conditions: Split G. princeps luciferase complementation, 4 h, at 4 µM, active compounds read high
The campaign covered roughly 360,000 compounds. About 2,900 (0.81%) were called active. Only a selection was taken, and actives are over-represented in it overall.
Give inhibition for every item shown.
Only the number, expressed in %, is required.

Name the reported inhibition value associated with the compound COc1ccc(CN2CCN(Cc3cn(C)nc3-c3ccccc3)CC2CCO)c(C)c1C (stereo not given)
8.28

Which value of inhibition has been reported for COC(=O)COc1ccc2c(c1C)O/C(=C\c1ccco1)C2=O in the records?
14.5

Give its inhibition value. Item: O=Cc1ccc(OCc2cn3ccccc3n2)cc1
-8.56

For the compound COC(=O)[C@@H]1C[C@@]2(O)[C@H](O)[C@H](O)[C@H](O)C[C@H]2N1Cc1ccc(C(C)(C)C)cc1 , what inhibition is on record?
6.53

What does the data say about its inhibition? Entry: Cc1c(CCO)sc[n+]1CC(=O)OC12CC3CC(CC(C3)C1)C2
-1.3

Endpoint output: inhibition of Cn1c2ccccc2c(=O)c2c(=O)n(Cc3ccco3)c(COc3ccccc3)nc21 . Value?
40.1

Given the entry CCOc1cc(S(=O)(=O)NCc2ccc3c(c2)OCO3)ccc1F , report its measured inhibition.
-2.91

Reported inhibition for CCC1(c2ccccc2)NC(=O)N(CC(=O)c2ccc3c(c2)OCO3)C1=O (stereo not given) : what is it?
6.66

Give its inhibition value. Item: OC(c1ccccc1)(c1ccccc1)C1CCN(CCCOc2ccccc2)CC1
4.12

Fill in: inhibition of Cc1ccccc1CN1C[C@@H]2C[C@@H](c3ccc4nsnc4c3)N3CCC[C@@]23C1=O is ___
0.89

Can you look up the measured inhibition of CCN1C(=O)/C(=C2\SC(N3CCCCC3)=NC2=O)c2ccccc21 for me?
-2.55

Look up inhibition: O=C(O)c1ccc(S(=O)(=O)N2CCC(Cc3ccccc3)CC2)cc1
-8.86

I'd like to know its inhibition. The compound in question is COc1cccc(OC)c1CN(C)C(=O)c1cnccc1C(F)(F)F
4.28

Which inhibition value belongs to COc1ccccc1NC(=O)CSc1nnc(Cn2nnc(-c3ccccc3)n2)n1-c1ccccc1 ?
7.76

Find the recorded inhibition belonging to CCOc1cc(C(=O)O)ccc1OCCOc1ccccc1 and report it.
-0.9

Suppose we examine the compound COc1ccc(-n2cc(CNC3CCOCC3)c(-c3cccc(F)c3)n2)cc1 ; what inhibition value has been reported?
24.7

So what's the measured inhibition for this one? CCOC(=O)C(=Cc1ccccc1)C(=O)c1ccccc1
86.5

Which inhibition value belongs to CN(CC(=O)NCCc1ccc(F)cc1)CC(=O)Nc1ccc(F)c(F)c1F ?
3.93

GET /values?readout=inhibition&item= CCc1ccccc1NC(=O)/C(=C/c1ccccc1)c1ccccc1
-13.9

Fill blank: measured inhibition of the compound Cc1ccc(CSCCNC(=O)CN(c2ccc(F)cc2)S(C)(=O)=O)cc1 is ____.
-1.09

Data request, read-out inhibition, for CCC(C)CN1C(=O)CSCC1(C)C(=O)NCc1ccccc1 (stereo not given)
-0.17

Please report the recorded inhibition for COC(=O)Nc1ccc(S(=O)(=O)N(C)CC(F)(F)C(F)F)cc1 .
4.74

Please look up its inhibition: COc1ccc(-c2cc(C(F)(F)F)nc(S(C)(=O)=O)n2)cc1OC
26.6

Requested read-out: inhibition. Entry: O=C(CCCOc1ccccc1)NCc1ccco1
-2.47

What inhibition value was documented for this compound, CC1CCCN(CC(=O)Nc2cc(Cl)ccc2Oc2ccccc2)C1 (stereo not given) ?
-6.16

What value of measured inhibition is listed for CCOC(=O)/C(=C\c1ccc([N+](=O)[O-])cc1)C(=O)c1cc(C(C)=O)c(Nc2ccccc2)s1 ?
-2.52

Suppose we examine the compound CCC(O)C1CCN(Cc2cn(-c3ccc(OC)cc3)nc2-c2cccc(F)c2)CC1 (stereo not given) ; what inhibition value has been reported?
8.4

Sample Cc1ccc2c(c1)C1CN(C)CCC1N2S(=O)(=O)c1ccc(Oc2ccc([N+](=O)[O-])cc2)cc1 (stereo not given) — what was its inhibition?
15.8

Entry under review: O=C(Nc1ccc(S(=O)(=O)N2CCOCC2)cc1)C1CCN(S(=O)(=O)c2ccc(Cl)cc2)CC1 . Reported inhibition?
-0.02

Entry COc1ccc(-n2cc(CN(C)Cc3n[nH]c(=O)[nH]3)c(-c3cccc(F)c3)n2)cc1 has what inhibition?
7.9

Where do these numbers come from? They come from PubChem BioAssay AID602281.
